Where these numbers come from: paper PMC10451623

# Tested on: human PPARδ (Homo sapiens)
# Construct: expressed in transfected cells; host or cells: COS-7
# Sequence (Q03181 211-439 limits assumed): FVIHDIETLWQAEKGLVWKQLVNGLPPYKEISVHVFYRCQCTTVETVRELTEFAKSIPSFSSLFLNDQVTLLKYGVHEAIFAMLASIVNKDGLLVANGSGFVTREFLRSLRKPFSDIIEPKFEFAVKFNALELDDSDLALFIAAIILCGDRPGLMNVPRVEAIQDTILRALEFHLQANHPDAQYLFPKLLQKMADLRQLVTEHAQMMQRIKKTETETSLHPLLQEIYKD
# Method description: Transactivation assay (GAL4–hPPARδ-LBD chimera, luciferase reporter, COS-7 cells)
# Format: cell-based
# Assay conditions: COS-7; read-out: Efficacy, PPARδ transactivation (% of the maximal response)
Property label: Emax (%)

Smiles string: O=C(O)CCCc1cc2cc(Cl)ccc2n1S(=O)(=O)c1ccc2ncsc2c1
Tested on: human PPARδ (Homo sapiens)
Result unit: %
Emax: 13.3

A. CSc1ccc(C(=O)/C=C/c2cc(C)c(OC(C)(C)C(=O)O)c(C)c2)cc1
B. CCO[C@H](COc1ccc(C(F)(F)F)cc1)CSc1ccc(OCC(=O)O)c(C)c1
C. CCO[C@@H](Cc1ccc(OCCn2c(C)ccc2-c2ccc(SC)cc2)cc1)C(=O)O
Ask: Please produce an ascending ranking of these compounds based on Emax. # output: labels, in the requested order
Result: C, A, B
(C: 6%, A: 14.8%, B: 99.3%)
